Target: Glc(a1-6)Glc(a1-6)Glc
Assay: glycan array binding signal (z-score within array); higher = stronger binding
Conditions: glycan notation: IUPAC condensed, linker removed
The entries come from a sample that favours the strongest signals as a whole.
reported metric: glycan array binding signal (z-score)
Lab note: jot the number down without any unit.

- binder: "Epa6 (Candida glabrata), Q6DTM7_CANGB (protein) MGSSHHHHHHSSGLVPRGSHMKDDYSSSLSNNNLGWTDPTEFPLGCSPNVTTPKNGLSMELYSYDYLKSGSNPCWDAAYLDPNYPRTGYKSHRLLAKVENVAGNINFYYHAPMGCTSLFDTLPQAYNYRTPLTMTNFTMLLYGYFKPKVTGYHTFTISADDLLFVNFGAGNAFDCCKRESSADDFGNYQAYAVWGSQTAKDDLTVHLDAGLYYPIRIFFNNRDNDGALSLTLKTESDPNPVIDFSDYFYSFDDTKDGCPGLVSYDTS"
  glycan array binding signal (z-score): -0.312
- binder: "FimA-N3 (Actinomyces oris) (protein) MHHHHHHSSGVDLGTENLYFQSNAGLQGAQFQLYKAKNAYANTCSNEKEGAPIAINGQTTLTTDAQGAIDIKGLFISDSIDGADRDNQVNAMERCYVLVETKAPAGYVLPAGNGAATPVKVKAGEETTDN"
  glycan array binding signal (z-score): -0.527
- binder: "Eosinophil-derived neurotoxin (EDN) (Homo sapiens), P10153 (protein) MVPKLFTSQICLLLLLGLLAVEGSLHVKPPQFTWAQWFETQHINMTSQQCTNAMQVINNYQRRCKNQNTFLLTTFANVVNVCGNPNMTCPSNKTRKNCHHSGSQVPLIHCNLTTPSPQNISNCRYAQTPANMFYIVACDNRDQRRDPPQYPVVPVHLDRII"
  glycan array binding signal (z-score): 0.261

Query: State its glycan array binding signal (z-score) for this binder: FaeGac (Escherichia coli) (protein) WMTGDFNGSVDIGGSITADDYRQKWEWKVGTGLNGFGNVLNDLTNGGTKLTITVTGNKPILLGRTKEAFATPVTGGVDGIPHIAFTDYEGASVVLRKPDGETNKNGLAYFVLPMKNAGGTKVGSVKVNASYAGVLGRGGVTSADGELLSLFADGLSSIFYGGLPRGSELSAGSAAAARTKLFGSLSRDDILGQIQRVNANVTSLVDVAGSYRENMEYTDGNVVSAAYALGIANGQTIEATFNQAVTTSTQWSAPLNVAITYY
Result: 6.71

Numbers sourced from the supplement of paper PMC8728848.
